assay: protein stability index of a GFP-peptide fusion (yeast GPS) (PSI 1-4); higher = more stable; sorted into four equal gates, so the index is relative within each strain; conditions: pdr5∆
measurementType: protein stability index
Enter the number alone.

Please review the following examples before continuing.
residuecodes="MQVLNTKSETKQENETM [MED11]" measurementtype="protein stability index" testresult=2.16
residuecodes="TQRIMTNVIAFAFWNLL [YLR018C/POM34]" measurementtype="protein stability index" testresult=2.13
residuecodes="NNNHKDKKLLRRLLNLY [SWI1]" measurementtype="protein stability index" testresult=2.93
residuecodes="EARAEAINLMGVKNNLL [RPO31]" measurementtype="protein stability index" testresult=1.96
residuecodes="LNENARELEQIKPKIAL [SNF12]" measurementtype="protein stability index" testresult=3

(Q) Item EEEKELTEEELKTRYVG [RPN11] has what recorded protein stability index?
(A) 3.44

(Q) Which value of protein stability index has been reported for IDHSDESNRQSVIVDSK [ESC2] in the records?
(A) 3.27

(Q) So what does the record say about protein stability index for KEQTIQLPSKFTCSCNS [RPN14] ?
(A) 2.53

(Q) Item under review: ESKLKIDPDTKAPNAVV [RPB11] . Reported protein stability index?
(A) 2.56

(Q) # input sequence: KPALKVSKEGLYQLVDI [YMR129W/POM152] ; wanted: its protein stability index
(A) 3.1

(Q) What measured protein stability index goes with KLSSAENANADLENKFN [YIL149C/MLP2] ?
(A) 3.31

(Q) Value lookup for protein stability index; key = RPGRIDRKIEFPPPSVA [RPT6]
(A) 3.26

(Q) # protein stability index lookup, item EDEEDDNISSFHSAVEN [YCG1]
(A) 3.2

(Q) Query (sequence): AGERKIPHDLNFLQESY [TAF14] ; field requested: protein stability index
(A) 3

---

test: protein stability index of a GFP-peptide fusion (yeast GPS) (PSI 1-4); higher = more stable; sorted into four equal gates, so the index is relative within each strain; conditions: pdr5∆
Item-by-item account of protein stability index
Number, no unit, nothing else.

residuecodes="KAKIIPGNGKHASENIS [SIR4]" testresult=3.04
residuecodes="LLWLVLIHPENFTCNRK [SWI1]" testresult=1.92

(Q) Endpoint output: protein stability index of DMQSSVDTGLQPQHPHY [YLR018C/POM34] . Value?
(A) 2.86

(Q) Look up protein stability index for this sequence: KRHRSSYYDNDLDETTQ [YML031W/NDC1]
(A) 2.76

(Q) Give its protein stability index value. Item: SSLMNGLGYVFEFQYLT [SRB5]
(A) 1.83

(Q) Recorded protein stability index for KTQEYYTQYTNDYLEKH [CDC53] , please?
(A) 2.42

(Q) Fill in the blank: the reported protein stability index of GLVDENKVEAFKSLYTF [YAR002W/NUP60] is ____.
(A) 2.65

(Q) Requested field: protein stability index. Item: RCYQPFELFDNKTAHLS [SNU114]
(A) 2.71

(Q) GET /values?readout=protein stability index&item= MEYHISNTDETKGENYQ [FAS2]
(A) 3.22

(Q) If you can, please state the reported protein stability index value of RKFHELNDHIDDFEVNV [GRR1] .
(A) 3.18

(Q) Reported protein stability index for DKQAEGTPLFTFGKKAD [YOR098C/NUP1] : what is it?
(A) 2.43

(Q) Entry LHKIFYKVLKNNGLPEC [YCG1] has what protein stability index?
(A) 1.95

(Q) Returns the measured protein stability index for the input sequence. Input: LANEERLSNEMHALKNR [RGR1]
(A) 3.42

(Q) Which protein stability index is reported for this sequence? SFGKIYVTKPMVNESDG [RPB2]
(A) 3.18

(Q) Which protein stability index value is on record for IQEIKESVELPLTHPEL [RPT2] ?
(A) 2.97

(Q) Record request: protein stability index value, item TELTHHLLPRNEWIKAQ [QCR7]
(A) 2.16

(Q) Requested field: protein stability index. Item: RDDEPKLYQTEPSGIYS [PRE6]
(A) 3.07
